Biological target: Env of the clade AE HIV-1 pseudoviruses of the cross-clade 162-pseudovirus panel (n = 10)
Assay: cell-based or functional assay
METRIC: Median IC50 against viruses neutralized with an IC50 <50 µg/ml

Query :: // lookup Median IC50 against viruses neutralized with an IC50 <50 µg/ml for PGT-126 (antibody, V domains shown) VH: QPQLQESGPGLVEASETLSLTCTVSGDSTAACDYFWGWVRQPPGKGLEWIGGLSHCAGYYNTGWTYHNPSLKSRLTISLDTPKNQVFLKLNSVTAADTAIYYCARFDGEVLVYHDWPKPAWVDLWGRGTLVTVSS VL: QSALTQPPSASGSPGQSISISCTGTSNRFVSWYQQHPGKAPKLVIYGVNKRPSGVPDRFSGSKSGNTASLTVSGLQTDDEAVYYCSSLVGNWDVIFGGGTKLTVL
Result :: 1.77 µg/mL

Query :: // lookup Median IC50 against viruses neutralized with an IC50 <50 µg/ml for PGT-131 (antibody, V domains shown) VH: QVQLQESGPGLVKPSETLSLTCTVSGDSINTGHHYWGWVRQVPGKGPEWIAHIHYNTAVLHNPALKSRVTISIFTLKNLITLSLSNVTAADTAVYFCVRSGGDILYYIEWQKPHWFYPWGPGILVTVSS VL: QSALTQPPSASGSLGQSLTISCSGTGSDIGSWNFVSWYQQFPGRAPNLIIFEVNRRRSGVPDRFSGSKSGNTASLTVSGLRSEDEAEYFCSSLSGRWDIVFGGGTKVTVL
Result :: 0.08 µg/mL

Query :: // lookup Median IC50 against viruses neutralized with an IC50 <50 µg/ml for PGT-128 (antibody, V domains shown) VH: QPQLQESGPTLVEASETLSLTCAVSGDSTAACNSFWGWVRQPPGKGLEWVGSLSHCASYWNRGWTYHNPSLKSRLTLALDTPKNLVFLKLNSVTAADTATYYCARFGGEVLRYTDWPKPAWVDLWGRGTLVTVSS VL: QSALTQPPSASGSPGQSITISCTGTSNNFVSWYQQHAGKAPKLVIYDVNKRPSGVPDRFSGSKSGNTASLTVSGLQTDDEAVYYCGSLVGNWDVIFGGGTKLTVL
Result :: 0.05 µg/mL

Query :: // lookup Median IC50 against viruses neutralized with an IC50 <50 µg/ml for PGT-125 (antibody, V domains shown) VH: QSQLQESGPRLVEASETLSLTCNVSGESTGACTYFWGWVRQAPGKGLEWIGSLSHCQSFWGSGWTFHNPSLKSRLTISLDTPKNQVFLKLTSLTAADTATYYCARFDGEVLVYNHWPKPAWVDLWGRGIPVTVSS VL: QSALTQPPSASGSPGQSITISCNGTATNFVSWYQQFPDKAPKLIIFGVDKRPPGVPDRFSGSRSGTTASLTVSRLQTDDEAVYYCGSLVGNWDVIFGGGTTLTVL
Result :: 0.03 µg/mL

Query :: // lookup Median IC50 against viruses neutralized with an IC50 <50 µg/ml for PGT-130 (antibody, V domains shown) VH: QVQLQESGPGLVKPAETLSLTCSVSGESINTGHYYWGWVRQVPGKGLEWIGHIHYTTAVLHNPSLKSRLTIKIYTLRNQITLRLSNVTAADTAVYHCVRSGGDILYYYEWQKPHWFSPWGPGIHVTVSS VL: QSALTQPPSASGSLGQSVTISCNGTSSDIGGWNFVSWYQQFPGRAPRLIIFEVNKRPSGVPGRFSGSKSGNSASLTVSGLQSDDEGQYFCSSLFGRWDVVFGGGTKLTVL
Result :: 0.17 µg/mL
